System: Fibroblast
procedure.details: Multiplex assay against human fibroblast
Format: toxicity, cell-based
condition.notes: 12 h, 10 µM, compound concentration 10 uM, replicate 1
readout.type: Population Membrane Permeable-Phenotype (%)

# chemical.structure, assay.value
measured = [
    ("COc1ncc(-c2ccc3nccc(-c4ccnnc4)c3c2)cc1NS(=O)(=O)c1ccc(F)cc1F", 30),
    ("Cc1nc(-c2ccc(-c3ccc(C(=O)N4CCc5cc6c(cc54)C4(CCN(C)CC4)CO6)cc3)c(C)c2)no1", 5),
    ("CC(C)(O)CNc1ncc(-c2ccnc(Nc3ccnc(Cl)c3)n2)c(CC2CC2)n1", 18),
    ("Cc1cc(C)cc(-c2cnc3cc(Cl)c(-c4cccc(O)c4)cc3c2OCCCN)c1", 53),
    ("CCN(CC)CCCCNc1ncc2cc(-c3cc(OC)cc(OC)c3)c(NC(=O)NC(C)(C)C)nc2n1", 0),
    ("Cc1csc2c(N[C@@H](C)CN3CCN(S(=O)(=O)c4ccc(Cl)c(Cl)c4)CC3)ncnc12", 23),
    ("CNc1nc(NCc2ccc(NS(C)(=O)=O)cc2Cl)cc(-c2ccccn2)n1", 21),
    ("CNCc1ccc(-c2cc(-c3nc(-c4ccc(S(=O)(=O)C(C)C)cc4)cnc3N)on2)cc1", 5),
    ("CN1CCN(c2ccc(OC(F)(F)F)c(Nc3ncc4c(n3)-c3c(c(C(N)=O)nn3CCO)CC4)c2)CC1", 3),
    ("C=CC(=O)Nc1cccc(C(=O)Nc2ccc(Nc3cc(-c4[nH]c(SC)nc4C)ccn3)cc2)c1", 18),
    ("c1cn2cc(-c3ccc4cn[nH]c4c3)nc(Nc3ccc(N4CCOCC4)cc3)c2n1", 14),
]
